Exercise: state measured inhibition for each of the compounds provided.
Molecular target: Tyrosine-protein kinase CSK (Homo sapiens) (UniProt P41240);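 note: value given is the averaged percent inhibition of CSK kinase activity, from the GSK PKIS kinase inhibitor set screening panel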
Sequence (P41240 2-450 limits assumed): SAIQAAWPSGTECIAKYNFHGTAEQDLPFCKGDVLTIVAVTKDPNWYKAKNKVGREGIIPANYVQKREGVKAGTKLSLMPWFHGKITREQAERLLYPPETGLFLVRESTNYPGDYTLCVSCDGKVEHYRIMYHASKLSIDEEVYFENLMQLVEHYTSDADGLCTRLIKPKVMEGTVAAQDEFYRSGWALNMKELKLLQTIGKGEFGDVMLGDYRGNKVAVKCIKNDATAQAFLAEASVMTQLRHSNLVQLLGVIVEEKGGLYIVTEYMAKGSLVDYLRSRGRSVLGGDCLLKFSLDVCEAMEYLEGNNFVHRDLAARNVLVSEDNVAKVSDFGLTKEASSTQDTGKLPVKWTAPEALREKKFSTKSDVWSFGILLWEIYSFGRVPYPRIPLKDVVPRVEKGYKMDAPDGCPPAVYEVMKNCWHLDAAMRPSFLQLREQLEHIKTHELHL
Settings: at 0.1 µM
Give the quantity in %, number only.

Input line: Report inhibition for CN1CCC(C(=O)Nc2n[nH]c3nnc(-c4ccccc4)cc23)CC1 please.
Output line: 4.02

Input line: Report inhibition for COC(=O)Nc1nc2cc(Oc3cccc(NC(=O)Nc4cc(C(F)(F)F)ccc4F)c3)ccc2[nH]1 please.
Output line: -2.03

Input line: Report inhibition for NCc1ccc(-c2nc(-c3ccc(Cl)c(O)c3)c(-c3ccncc3)[nH]2)cc1 please.
Output line: -0.21

Input line: Report inhibition for CS(=O)(=O)CCNCc1ccc(-c2ccc3ncnc(Nc4ccc(OCc5ccccc5)c(Cl)c4)c3c2)o1 please.
Output line: 0.67

Input line: Report inhibition for COc1cc2c(cc1Nc1nc(N3CCc4ccccc43)c3cc[nH]c3n1)N(C(=O)CN(C)C)CC2 please.
Output line: 3.07

Each recorded value in this set is attributed to ChEMBL document CHEMBL1961873.
